Data origin, for the record: PubChem BioAssay (NCI)

tested on: SN12C renal; assay: NCI-60 one-dose screen, 48 h; conditions: 10 µM unless noted
About 83,000 compounds went through this panel and 20% of them were active in at least one assay; those are over-represented in the sample as a whole. Activity calls are given as the source filed them. How the source made its calls: active means growth percent below 10; inactive means the rest.
Classes used: YES = active, NO = inactive

- compound: "CN(C)CCCNC(=O)C(c1ccccc1)c1ccccc1"
  target.or.test.system: "SN12C renal"
  assigned.label: "NO"
- compound: "Cc1ccc(S(=O)(=O)N2CCC(C(=O)Nc3ccc(F)cc3F)CC2)cc1"
  target.or.test.system: "SN12C renal"
  assigned.label: "NO"
- compound: "NC(N)=NC(N)=Nc1ccccc1-c1ccccc1"
  target.or.test.system: "SN12C renal"
  assigned.label: "NO"
- compound: "C#CCC1(c2ccc(F)c(F)c2)NS(=O)(=O)c2ccccc21 (stereo unspecified)"
  target.or.test.system: "SN12C renal"
  assigned.label: "NO"
- compound: "O=C(c1ccncc1)N1N=C(c2ccc(Cl)cc2)CC1c1c[nH]c2ccccc12 (stereo unspecified)"
  target.or.test.system: "SN12C renal"
  assigned.label: "NO"
- compound: "CCn1cc(C(=O)O)c(=O)c2cc(F)c(N3CCN(S(=O)(=O)c4ccc(Cl)cc4Cl)CC3)cc21"
  target.or.test.system: "SN12C renal"
  assigned.label: "NO"
- compound: "COc1cc2nc(Cl)nc(NCCO)c2cc1OC"
  target.or.test.system: "SN12C renal"
  assigned.label: "NO"
- compound: "NS(=O)(=O)c1ccc(CN2C(=O)c3cccc4cccc(c34)C2=O)cc1"
  target.or.test.system: "SN12C renal"
  assigned.label: "NO"
- compound: "Nc1c(C(=O)Nc2c(Cl)cccc2Cl)sc2nc3c(cc12)CCCCC3"
  target.or.test.system: "SN12C renal"
  assigned.label: "NO"
- compound: "CN(C)c1ccc(C2CC(c3ccccc3)=NN2/C=C2\\SC(=O)NC2=O)cc1 (stereo unspecified)"
  target.or.test.system: "SN12C renal"
  assigned.label: "NO"
- compound: "CCN(CC)CCCNc1nc(C)cc(Nc2ccc3nc(C)cc(N)c3c2)n1"
  target.or.test.system: "SN12C renal"
  assigned.label: "NO"
- compound: "CC1CCN(C(=O)CSc2nc3sc4c(c3c(=O)[nH]2)CCCC4)CC1"
  target.or.test.system: "SN12C renal"
  assigned.label: "NO"
- compound: "O=C(/C=C/CN1CCCCC1)Nc1cc2c(Nc3ccc(F)c(Cl)c3F)ncnc2cc1OCCOC(F)F"
  target.or.test.system: "SN12C renal"
  assigned.label: "YES"
- compound: "CC(Br)C(O)c1cc2c(cc1Br)OCO2 (stereo unspecified)"
  target.or.test.system: "SN12C renal"
  assigned.label: "NO"
- compound: "COc1cc(CCn2nnc3c(NCCCCO)ncnc32)cc(OC)c1"
  target.or.test.system: "SN12C renal"
  assigned.label: "NO"
- compound: "COc1ncc(-c2ccc3ncnc(Nc4cccc(Cl)c4)c3c2)cc1NS(=O)(=O)CCN1CCOCC1"
  target.or.test.system: "SN12C renal"
  assigned.label: "NO"
- compound: "COc1cc(NC(=O)CCl)ccc(=O)c1"
  target.or.test.system: "SN12C renal"
  assigned.label: "NO"
- compound: "CCCCCCCCCCCCNC(=S)N/N=C/c1ccc(Cl)c(Cl)c1"
  target.or.test.system: "SN12C renal"
  assigned.label: "NO"
- compound: "COC1=CC(c2ccc[nH]2)=N/C1=C\\c1[nH]c(C)c(C(=O)CCC(=O)Oc2ccc3c(c2)CCC2C3CC[C@]3(C)[C@@H](O)CC[C@@H]23)c1C (stereo partly specified)"
  target.or.test.system: "SN12C renal"
  assigned.label: "NO"
- compound: "Cc1cnc(NC(=O)C(Cc2ccccc2)NC(=O)c2ccccc2)s1 (stereo unspecified)"
  target.or.test.system: "SN12C renal"
  assigned.label: "NO"
- compound: "CCN(Cc1ccc(CN(CC)C(=O)C(Br)Br)cc1)C(=O)C(Br)Br"
  target.or.test.system: "SN12C renal"
  assigned.label: "NO"
